assay-target: Integrin alpha-V/beta-5 (Homo sapiens, UniProt P06756+P18084)
Sequence (P06756 31-889 limits assumed): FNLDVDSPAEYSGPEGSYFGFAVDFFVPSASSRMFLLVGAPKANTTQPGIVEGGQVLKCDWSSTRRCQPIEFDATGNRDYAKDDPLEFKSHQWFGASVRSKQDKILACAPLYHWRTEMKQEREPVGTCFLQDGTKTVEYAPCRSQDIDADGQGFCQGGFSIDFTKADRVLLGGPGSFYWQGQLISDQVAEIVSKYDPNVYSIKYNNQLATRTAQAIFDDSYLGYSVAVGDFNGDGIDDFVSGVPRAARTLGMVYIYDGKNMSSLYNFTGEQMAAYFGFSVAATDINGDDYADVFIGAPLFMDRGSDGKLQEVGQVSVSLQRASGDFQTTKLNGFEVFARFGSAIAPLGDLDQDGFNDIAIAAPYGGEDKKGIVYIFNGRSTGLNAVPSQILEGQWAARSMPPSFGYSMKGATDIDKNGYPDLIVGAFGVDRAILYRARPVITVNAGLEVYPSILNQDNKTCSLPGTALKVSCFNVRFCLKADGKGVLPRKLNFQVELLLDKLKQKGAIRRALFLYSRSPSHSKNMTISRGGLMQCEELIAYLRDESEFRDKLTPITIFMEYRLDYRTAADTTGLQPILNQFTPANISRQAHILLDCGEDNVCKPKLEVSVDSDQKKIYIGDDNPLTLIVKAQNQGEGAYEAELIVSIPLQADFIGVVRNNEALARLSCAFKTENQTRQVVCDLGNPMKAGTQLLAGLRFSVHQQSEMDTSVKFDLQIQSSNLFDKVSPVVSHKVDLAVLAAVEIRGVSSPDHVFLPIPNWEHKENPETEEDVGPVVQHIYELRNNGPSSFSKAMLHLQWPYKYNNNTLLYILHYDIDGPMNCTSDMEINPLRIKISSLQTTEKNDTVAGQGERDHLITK
Sequence (P06756 891-1048 limits assumed): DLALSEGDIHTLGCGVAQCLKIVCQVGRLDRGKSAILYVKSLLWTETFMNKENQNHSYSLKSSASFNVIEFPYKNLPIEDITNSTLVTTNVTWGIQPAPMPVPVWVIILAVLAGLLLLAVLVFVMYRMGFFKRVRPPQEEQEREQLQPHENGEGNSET
Sequence (P18084 24-799 limits assumed): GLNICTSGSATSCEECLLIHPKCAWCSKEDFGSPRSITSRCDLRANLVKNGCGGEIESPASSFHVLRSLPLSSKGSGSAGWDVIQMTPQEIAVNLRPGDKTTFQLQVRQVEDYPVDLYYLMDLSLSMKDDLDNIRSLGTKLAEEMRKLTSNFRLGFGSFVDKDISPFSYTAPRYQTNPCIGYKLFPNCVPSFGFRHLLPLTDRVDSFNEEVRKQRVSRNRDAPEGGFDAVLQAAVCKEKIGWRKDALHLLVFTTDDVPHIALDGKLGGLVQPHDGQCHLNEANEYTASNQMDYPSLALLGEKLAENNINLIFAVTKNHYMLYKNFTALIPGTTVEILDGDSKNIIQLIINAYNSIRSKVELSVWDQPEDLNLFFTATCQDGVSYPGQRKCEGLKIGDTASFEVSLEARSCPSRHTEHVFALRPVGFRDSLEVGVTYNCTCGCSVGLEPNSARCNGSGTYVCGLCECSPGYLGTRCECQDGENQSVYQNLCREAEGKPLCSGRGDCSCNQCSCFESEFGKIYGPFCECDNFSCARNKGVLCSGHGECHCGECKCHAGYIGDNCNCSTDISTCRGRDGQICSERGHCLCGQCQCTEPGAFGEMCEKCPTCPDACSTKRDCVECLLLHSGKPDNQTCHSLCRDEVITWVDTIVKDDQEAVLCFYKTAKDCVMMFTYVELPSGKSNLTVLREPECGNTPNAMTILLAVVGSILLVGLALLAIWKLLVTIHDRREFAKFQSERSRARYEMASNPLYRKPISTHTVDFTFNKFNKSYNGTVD
protocol: Binding affinity to Integrin alpha-v-beta-5 receptor by ELISA assay
assay-metric: IC50 (nM)

Reference set (5 entries):
[[record]]
compound = "O=C(O)CC(c1ccc2c(c1)OCO2)n1ccc2cc(OCCc3ccc4c(n3)NCCC4)ccc21 (configuration not stated)"
assay_target = "Integrin alpha-V/beta-5 (Homo sapiens, UniProt P06756+P18084)"
endpoint_result = 0.5

[[record]]
compound = "O=C(O)CC(c1cccnc1)n1ccc2cc(OCCc3ccc4c(n3)NCCC4)ccc21 (configuration not stated)"
assay_target = "Integrin alpha-V/beta-5 (Homo sapiens, UniProt P06756+P18084)"
endpoint_result = 0.21

[[record]]
compound = "O=C(O)CC(c1cccnc1)n1ccc2c(NCc3ccc4c(n3)NCCC4)cccc21 (configuration not stated)"
assay_target = "Integrin alpha-V/beta-5 (Homo sapiens, UniProt P06756+P18084)"
endpoint_result = 11

[[record]]
compound = "O=C(O)CC(c1ccccc1)n1ccc2cc(OCCc3ccc4c(n3)NCCC4)ccc21 (configuration not stated)"
assay_target = "Integrin alpha-V/beta-5 (Homo sapiens, UniProt P06756+P18084)"
endpoint_result = 0.68

[[record]]
compound = "O=C(O)CC(c1cccnc1)n1ccc2c(CCc3ccc4c(n3)NCCC4)cccc21 (configuration not stated)"
assay_target = "Integrin alpha-V/beta-5 (Homo sapiens, UniProt P06756+P18084)"
endpoint_result = 0.96


I. O=C(O)CC(c1ccccc1)n1ccc2cc(CCCc3ccc4c(n3)NCCC4)ccc21 (configuration not stated)
II. O=C(O)CC(c1ccccc1)n1ccc2c(CCc3ccc4c(n3)NCCC4)cccc21 (configuration not stated)
## Task Determine, for I and II , which has the greater value of IC50. Kindly give the label for the entry you pick.
## Result I
(I: 15 nM, II: 1.1 nM)

Provenance of the data: ChEMBL document CHEMBL1144584
